The following molecules are shown together with reported TGI values.
system: SF-295 CNS; assay: NCI tumour cell line growth inhibition, 48 h

Give the reported value of TGI for this record: `CCCC(=O)n1[nH]c(=O)n(C(C)(C)C)c1=O`
> 100 µM

Dear colleague, please send me the reported TGI for `COc1cc(-c2ccc(Nc3ccccc3C(=O)O)c(OC)c2)ccc1Nc1ccccc1C(=O)O` when you can.
> 100 µM

Hello, please tell me recorded TGI for this one: `NC(=O)c1ccccc1NC(=O)C(=O)Nc1n[nH]c(N)n1`
> 100 µM

Name the recorded TGI of the item `O=C(Nc1ccc2cc3ccc(NC(=O)N4CCCCCC4)cc3nc2c1)N1CCCCCC1` in your answer.
2.12 µM

----------
system: NCI-H460 lung; assay: NCI tumour cell line growth inhibition, 48 h
TGI listing for selected molecules.
The answer is to be given in µM; state only the numeric part.

Some solved cases for reference:
CCOC(=O)c1c(C(F)(F)F)n([O-])c2ccc(Cl)cc2[n+]1=O | 3.99
CCc1cccc(C(C)C)c1NC1=C([n+]2ccc(C)cc2)C(=O)c2ccccc2C1=O | 4.09
Cc1ccc(NC(C(=O)c2ccccc2)c2ccccc2)cc1 (stereo unspecified) | 11.8
CC1=C(C(=O)Nc2cccc(C(F)(F)F)c2)C(c2ccccc2F)C(C(=O)Nc2cccc(C(F)(F)F)c2)=C(C)N1 | 21.8
COc1cc(-c2ccc(Nc3ccccc3C(=O)O)c(OC)c2)ccc1Nc1ccccc1C(=O)O | 36.7
C/C(=C\CCc1ccsc1)CC/C=C(\C)CCCN1CCN(CCO)CC1 | 3.79
COc1ccc2[nH]c3c(C)c4ccnc(NCCCN(C)CCCN)c4c(C)c3c2c1 | 0.213
O=C1C=CC(=O)c2c1cc1ccccc1c2O | 41.3

Input COc1ccc(C2c3cc4c(c(OC)c3CC3OCC(=O)C32)OCO4)cc1OC (stereo unspecified) , output reported TGI.
14.3

----------
tested on: HOP-18 NSCLC; test: NCI tumour cell line growth inhibition, 48 h
The following compounds are shown together with reported TGI values.

These recorded examples may help you get a feel for the data.
COC(=O)CSc1n[nH]c(-c2ccccc2)n1 | > 100 µM
C=C(C)C1Cc2c(cc(OC)c3c(=O)c4ccccc4n(C)c23)O1 (configuration not stated) | > 100 µM

Return the recorded TGI value; entry: `O=C(O)/C(=C/c1ccccc1[N+](=O)[O-])c1cccs1`
> 100 µM

----------
A collection of compounds and their measured TGI
test system: HCT-15 colon; assay: NCI tumour cell line growth inhibition, 48 h
Please state the figure in µM; there is no need to write the unit.

Some entries whose results are on file:
COC1=CCC2=C(CCN(C(=O)C3CC3)C2Cc2ccc(OC)c(O)c2)C1 (stereo unspecified) | 59.6
C=C(CS(=O)(=O)c1ccccc1)C(=O)OCC | 35
S=C1NCCN1C(=S)NC1CCCCC1 | 89.7

Item `Cc1cc(N2CCN(C)CC2)nc(N(CCNc2ccnc3cc(Cl)ccc23)Cc2ccco2)n1` : provide TGI
10.9

Return value of TGI for input CS(=O)/C(C#N)=C\C=C\c1cccc(Cl)c1 (stereo unspecified) , no commentary.
4.04

Report TGI for `Cc1ccn2c(-c3csc(Nc4cccc(O)c4)n3)c(C)nc2c1`
24

----------
test system: HT29 colon; test: NCI tumour cell line growth inhibition, 48 h
parameter: TGI

Illustrative cases are given below, each with its answer.
O=C1CC(NC2CC(=O)c3c(Br)sc(Br)c32)c2c(Br)sc(Br)c21 (stereo not drawn) | 8.91 µM
CC(=O)OCC1=C2C(OC(=O)C(C)C)CC3(COC(C)=O)OC3/C=C\C3(C)OC3C2OC1=O (stereo not drawn) | > 100 µM
CC(=O)OCC1OC(N2C(=O)CC(N)=Nc3ccccc32)C(OC(C)=O)C(OC(C)=O)C1OC(C)=O (stereo not drawn) | > 100 µM
CCCC(=O)n1[nH]c(=O)n(C(C)(C)C)c1=O | > 100 µM
Nc1nc2c(c(=O)[nH]1)N=C(COP(=O)(O)OP(=O)(O)O)CN2 | > 100 µM
Cc1nn2c(=O)n(-c3cccc(-n4nnc5c(-c6ccccc6)c(C)nn5c4=O)c3C)nnc2c1-c1ccccc1 | > 100 µM

Identify measured TGI obtained with HT29 colon for Cc1cn(C2CC(N=[N+]=[N-])C(CO)O2)c(=O)[nH]c1=O (stereo not drawn) .
> 1000 µM

Name the recorded TGI of `O=C1C=CC(=O)c2c1cc1ccccc1c2O` , assay system HT29 colon.
24 µM

----------
system: MDA-MB-231 breast; assay: NCI tumour cell line growth inhibition, 48 h
parameter: TGI

CCNC(=S)Nc1c(C#N)c2n(c1C(=O)OCC)CCCCC2 | > 100 µM
CC(=O)Nc1cc(C(c2ccccc2)c2ccccc2)cc(C(c2ccccc2)c2ccccc2)c1C | > 100 µM

Fill in TGI for record `O=CNNC(=O)CSc1nc2ccc(I)cc2c(=O)n1Cc1ccccc1`
81.8 µM

----------
tested on: SW-620 colon; assay: NCI tumour cell line growth inhibition, 48 h
parameter: TGI

For orientation, consider the following solved cases.
O=C(Nc1ccccc1)c1cc2c(cc1Cl)SC(NNCCO)=NS2(=O)=O | > 100 µM
Cc1ccc(C)c(NC(=O)C(=O)CC(=O)c2cccc3ccccc23)c1 | > 100 µM

Using known records, supply TGI for `[O-]/N=N\c1on[n+](CCc2ccccc2)c1Cc1c(/N=N/[O-])on[n+]1CCc1ccccc1`
> 100 µM

Tell me TGI reported for Cc1ccc(S(=O)(=O)C(C#N)c2nc3ccccc3nc2N2CCOCC2)cc1 (stereo not given)
> 100 µM

Read the entry `Cc1cc(N2CCN(C)CC2)nc(N(CCNc2ccnc3cc(Cl)ccc23)Cc2ccco2)n1` and write its reported TGI.
12.4 µM

----------
tested on: UACC-62 melanoma; test: NCI tumour cell line growth inhibition, 48 h
parameter: TGI

These recorded examples may help you get a feel for the data.
c1ccc2c(c1)ncn2CCn1ccnc1 | > 100 µM
CC[C@@]1(OC(=O)C(N)CCC(=O)O)C(=O)OCc2c1cc1n(c2=O)Cc2cc3ccccc3nc2-1 (stereo partly specified) | 0.16 µM
O=CN1CCN(C(=O)c2ccc(Cl)cc2)C1=S | 29.3 µM
O=C1CC(NCCCNC2CC(=O)c3c(Br)sc(Br)c32)c2c(Br)sc(Br)c21 (stereo unspecified) | 3.86 µM
CC1(C)CC(=O)C(CC2C(=O)c3ccccc3C2=O)C(=O)C1C(=O)C(=O)Nc1cccc2ccc(O)cc12 (stereo unspecified) | > 100 µM
Cc1ccc(C)c(NC(=O)C(=O)CC(=O)c2cccc3ccccc23)c1 | > 100 µM
Cc1ccc(S(=O)(=O)N/N=C2/C3C(CC2(C)C)C2(C)CCCC3(C)C2O)cc1 (stereo unspecified) | 30 µM
Oc1ccc(NCc2cc(O)ccc2O)cc1 | 29.3 µM
O=S1c2ccccc2N=C(c2ccc3ccccc3c2)CC1c1ccccc1F (stereo unspecified) | > 100 µM
COc1ccc(N2C(=O)C(C#N)=C(SC)C(C#N)C2=O)cc1 (stereo unspecified) | > 100 µM

Give TGI for `COC(=O)CSc1n[nH]c(-c2ccccc2)n1`
> 100 µM

----------
system: UACC-257 melanoma; test: NCI tumour cell line growth inhibition, 48 h
parameter: TGI

Use these answered entries as a reference point.
Nc1cccc2c1CN(C1CCC(=O)NC1=O)C2=O (stereo unspecified) | > 100 µM
C=C1C(=O)O[C@H]2[C@H]1CC/C(COC(=O)c1cccc3ccccc13)=C\CC[C@@]1(C)O[C@@H]21 | 2.83 µM
COc1ccc(C2=NNC(c3cc(Cc4ccc(O)c(C5CC(c6ccc(OC)cc6)=NN5)c4)ccc3O)C2)cc1 (stereo unspecified) | > 100 µM
O=C1CC(NCCCNC2CC(=O)c3c(Br)sc(Br)c32)c2c(Br)sc(Br)c21 (stereo unspecified) | > 35.8 µM
OCCSCc1cc(Cl)cc(Cl)c1O | > 100 µM

Indicate the recorded TGI value for this compound: `c1csc(-c2ccc(-c3ccsc3)s2)c1`
> 100 µM

Return reported TGI. Input compound: `S=C(Nc1ccc(Cl)cc1)SC1CCCCC1`
76.5 µM

Let me know recorded TGI for `Cc1nn2c(=O)n(-c3cccc(-n4nnc5c(-c6ccccc6)c(C)nn5c4=O)c3C)nnc2c1-c1ccccc1` , thanks.
70.2 µM

Output TGI of `COc1cc(-c2ccccc2)c(OC)cc1CCl`
> 100 µM

Give TGI for the following compound: `c1cc2ccc3cc2cc1CNCCOCCNCc1ccc2ccc(cc2c1)CNCCOCCNC3`
> 100 µM

Note TGI for the compound shown: Cc1cn(C2CC(N=[N+]=[N-])C(CO)O2)c(=O)[nH]c1=O (stereo unspecified)
> 1000 µM

Give the reported value of TGI for this record: O=C(O)c1cccc(S(=O)(=O)NN2C(=O)CSC2c2ccccc2Cl)c1 (stereo unspecified)
> 100 µM

Annotate the compound `O=[N+]([O-])c1ccc(/C=N/n2c(CCc3n[nH]c(=S)n3/N=C/c3ccc([N+](=O)[O-])o3)n[nH]c2=S)o1` with its measured TGI.
83.8 µM

Give reported TGI value for CC(C)(C)C1CCC(CI)(N=[N+]=[N-])CC1 (stereo unspecified)
> 100 µM

Provide TGI value for the following compound: `C[C@@H](Oc1cc(-c2cnn(C3CC4(CNC4)C3)c2)cnc1N)c1c(Cl)ccc(F)c1Cl`
4.33 µM

Return the recorded TGI value; entry: `c1ccc2c(c1)ccc1nc3ccccn3c12`
> 100 µM

State its TGI: `O=c1c(-c2ccc3c(c2)OCO3)coc2c(CO)c(O)ccc12`
7.46 µM

Given COC1=CCC2=C(CCN(C(=O)C3CC3)C2Cc2ccc(OC)c(O)c2)C1 (stereo unspecified) , respond with its TGI.
> 100 µM

Read off the recorded TGI for `CC1=C(C(=O)Nc2cccc(C(F)(F)F)c2)C(c2ccccc2F)C(C(=O)Nc2cccc(C(F)(F)F)c2)=C(C)N1`
22.1 µM

Using known records, supply TGI for `CC1(Br)S(=O)(=O)OCCOS1(=O)=O`
> 100 µM

Supply TGI value. Item: CC(=O)O[C@@H]1[C@@H](C)[C@]2(CC(c3ccoc3)OC2O)C2CCC3O[C@]3(C)[C@]2(C)[C@@H]1OC(C)=O (stereo partly specified)
> 100 µM

Value source: PubChem BioAssay (NCI)
